Field: cytotoxicity at 10 µM. Provide a value for each of the compounds that follow.
assay: Toxicity liver stage against HepG2, at 10uM; assay type: cell-based; design: test concentration 10 uM, cell line HepG2-A16-CD81EGFP; settings: human, HepG2-A16-CD81EGFP cells; read-out: INHIBITION
One number for each entry, in %.

                                   compound           readout_kind  observed_measurement
0  CCOCC1CN(CC2CC2)Cc2nn(C)cc21 (stereo unspecified)  cytotoxicity at 10 µM                   -76
1   CC(=O)N1CCc2cc(C(=O)O)c(-c3ccsc3)nc2CC1  cytotoxicity at 10 µM                  13.8
2  CC(C)N1CCN(C)CC1c1nnc2ccc(C(=O)N3CCCC3)cn12 (stereo unspecified)  cytotoxicity at 10 µM                  -145

I have 3 compounds here; please give me cytotoxicity at 10 µM for each one.
1. O=C(Cc1ccc(Cl)cc1)N[C@@H]1CCC[C@@H](O)[C@@H]1O
2. Cc1nonc1C1CCCN1Cc1ccc(C(=O)Nc2nccs2)cc1 (stereo unspecified)
3. Cc1ccccc1C(NC(=O)CNC(=O)c1ccoc1C)C(C)C (stereo unspecified)

1: 2.3; 2: 76.7; 3: 2.74

---

experiment: Toxicity liver stage against HepG2, at 10uM; type: cell-based; design: test concentration 10 uM, cell line HepG2-A16-CD81EGFP; conditions: human, HepG2-A16-CD81EGFP cells; read-out: INHIBITION
readout_kind: cytotoxicity at 10 µM (%)
Give bare numbers, in %.

>>> df
                                   compound           readout_kind  observed_measurement
0  c1cc(CN2C[C@@H]3OCCN(CCN4CCCC4)[C@@H]3C2)ccn1  cytotoxicity at 10 µM                  3.39
1  CC(CO)CSc1ncnc2[nH]ncc12 (stereo unspecified)  cytotoxicity at 10 µM                 -12.3
2  CC(C)c1cccc(NC(=O)Cn2c(=O)n(C)c(=O)c3sccc32)c1  cytotoxicity at 10 µM                    42
3  Cc1cnc(N2C[C@H]3C[C@H](C(=O)N4CCN(C)CC4)N(C)[C@H]3C2)nc1  cytotoxicity at 10 µM                  -135
4  CC(C)(C)n1ncc2c1NC(=O)CC2c1ccc(C(=O)O)cc1 (stereo unspecified)  cytotoxicity at 10 µM                  2.08
5  COC[C@H]1CC[C@H]2[C@H](CCN2S(=O)(=O)c2ccccc2)O1  cytotoxicity at 10 µM                 -1.45
6  COc1ccc(N(c2ccc(C)cc2)c2ccc(C(=O)O)s2)cc1  cytotoxicity at 10 µM                 -3.75
7         CCN1CCC(CNC(=O)c2cc(Cl)c[nH]2)CC1  cytotoxicity at 10 µM                  -9.4

I have 2 compounds here; please give me cytotoxicity at 10 µM for each one.
1. COCCNC(=O)NCCS(=O)(=O)N1CCN(c2cccc(C)c2)CC1
2. COc1ccc(Nc2nc3c(C)nn(C)c3c(=O)n2C)cc1

1. 4.31
2. -0.103

Which measured cytotoxicity at 10 µM value corresponds to `c1ccc(CNC[C@H]2COCc3nc4cccnc4n32)cc1` ?
-1.84

Hello, the source for this data is ChEMBL document CHEMBL4513216, in case you need it.
